System: human immunodeficiency virus (LAVBRU strain)
experimental_details: anti-HIV XTT assay in infected CEM-SS cells
Format: cell-based
condition_notes: CEM-SS cells, XTT assay (FIGS. 4, 6, 7)
measured_endpoint: anti-HIV activity (in words)

• C[C@H](Cn1cnc2c(=O)[nH]c(N)nc21)OCP(=O)(O)O [(R)-2'-methyl-PMEG] = active
• Nc1nc2c(ncn2C[C@@H](CO)OCP(=O)(O)O)c(=O)[nH]1 [(S)-HPMPG] = clearly inactive
• C[C@@H](Cn1cnc2c(=O)[nH]c(N)nc21)OCP(=O)(O)O [(S)-2'-methyl-PMEG] = active
• Nc1nc2c(ncn2C[C@H](CO)OCP(=O)(O)O)c(=O)[nH]1 [(R)-HPMPG] = clearly inactive
